Molecular target: T1, THD1 K403E (UniProt P26039 1-405, K403E)
T1 construct: talin-1 (TLN1) head domain, residues 1-405, K403E; source: E. coli (DE3) Rosetta 2, purified (IMAC, SEC); not shown: His10-SUMO, N-terminal, cleaved
T1 sequence (P26039 1-405 K403E): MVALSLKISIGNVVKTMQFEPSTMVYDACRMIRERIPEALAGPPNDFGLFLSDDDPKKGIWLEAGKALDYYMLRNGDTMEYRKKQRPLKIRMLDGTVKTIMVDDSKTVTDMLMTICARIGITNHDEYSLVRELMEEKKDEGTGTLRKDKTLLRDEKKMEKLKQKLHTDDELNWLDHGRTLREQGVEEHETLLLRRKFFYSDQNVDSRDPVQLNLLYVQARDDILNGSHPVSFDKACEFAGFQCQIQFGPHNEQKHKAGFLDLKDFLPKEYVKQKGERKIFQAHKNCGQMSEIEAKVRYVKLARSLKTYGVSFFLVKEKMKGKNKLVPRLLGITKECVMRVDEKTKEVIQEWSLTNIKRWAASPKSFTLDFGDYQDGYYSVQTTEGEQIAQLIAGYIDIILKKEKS
Assay: MST; unlabelled protein titrated to 50-200 nM ATTO 488-labelled β-CT peptide, no third protein; 20 mM Tris pH 7.5, 200 mM NaCl, 1 mM TCEP, 0.05% Tween-20; Kd of individual titrations (in S0002 mean and sd, n = 2)
Details: both partners purified
No end group written: not given here.
measured-attribute: pKd
Expect pKd as a plain number equal to -log10 of the molar concentration.

Any idea what pKd was measured for {ATTO 488}-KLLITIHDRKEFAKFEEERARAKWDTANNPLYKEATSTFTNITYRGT (peptide, UniProt O54890 741-787, looked up, integrin β3 cytoplasmic tail (β3-CT); source: synthetic peptide (MPIB Core Facility)) [ATTO 488-labeled integrin β3 cytoplasmic tail (488–β3-CT)] ? 4.22
